Assay: Hygroscopicity: increase in weight and appearance after exposure to humidity
Type: physicochemical
Conditions: exposure to 70±5% relative humidity, at 25° C. for 24 hours
Where a name gives a salt, the structure may show the parent alone.
parameterMeasured: Increase in weight (%)
Report the value in % with no unit label.

**Q:** Which value of Increase in weight (%) has been reported for CC(=O)O[C@H](CC(=O)[O-])C[N+](C)(C)C [Acetyl-L-carnitine inner salt, reference compound] in the records?
**A:** 19

**Q:** Name the reported Increase in weight (%) value associated with the molecule C[N+](C)(C)C[C@H](O)CC(=O)[O-] [L-carnitine inner salt, reference compound]
**A:** 23

**Q:** Give its Increase in weight (%) value. Item: CC(=O)O[C@H](CC(=O)O)C[N+](C)(C)C.[Cl-] [Acetyl-L-carnitine chloride, reference compound]
**A:** 8

**Q:** Any idea what Increase in weight (%) was measured for CCC(=O)O[C@H](CC(=O)O)C[N+](C)(C)C.[Cl-] [Propionyl-L-carnitine chloride, reference compound] ?
**A:** 15

----------
Test: Hygroscopicity: increase in weight and appearance after exposure to humidity
Type: physicochemical
Details: exposure to 70±5% relative humidity, at 25° C. for 24 hours
Where a name gives a salt, the structure may show the parent alone.
parameterMeasured: Appearance

CC(=O)O[C@H](CC(=O)[O-])C[N+](C)(C)C [Acetyl-L-carnitine inner salt, reference compound] : deliquescent
C[N+](C)(C)C[C@H](O)CC(=O)[O-] [L-carnitine inner salt, reference compound] : deliquescent
CCC(=O)O[C@H](CC(=O)O)C[N+](C)(C)C.[Cl-] [Propionyl-L-carnitine chloride, reference compound] : deliquescent
